# Read-out: 3-Hydroxy-3-Methylglutaryl-CoA Synthase 2 (HMGCS2), HMGCS2 (gene 3158)
# procedureDetails: LTEA_HepaRG_HMGCS2: Life Technologies and Expression Analysis (LTEA) Assay for 3-Hydroxy-3-Methylglutaryl-CoA Synthase 2 (HMGCS2) using HepaRG (AID 2283504)
# assaySetup: mRNA level, 48 h; actives raise or lower the signal
The source made the active and inactive calls. How the source made its calls: active means hit-call score of the fitted dose curve at least 0.9, where 1 is the maximum; inactive means score below 0.9.
Classes used: 1 (yes) = active, 0 (no) = inactive

molecule	label
CCC(=O)Nc1ccc(Cl)c(Cl)c1	0 (no)
CCc1cnc(C2=NC(C)(C(C)C)C(=O)N2)c(C(=O)O)c1 (stereo not given)	0 (no)
CC[C@H](C)[C@H]1O[C@]2(C=C[C@@H]1C)C[C@@H]1C[C@@H](C/C=C(\C)[C@@H](O[C@H]3C[C@H](OC)[C@@H](O[C@H]4C[C@H](OC)[C@@H](NC)[C@H](C)O4)[C@H](C)O3)[C@@H](C)/C=C/C=C3\CO[C@@H]4[C@H](O)C(C)=C[C@@H](C(=O)O1)[C@]34O)O2	1 (yes)
COc1ccc(C(=CC(=O)N2CCOCC2)c2ccc(Cl)cc2)cc1OC	0 (no)
CCOP(=O)(NC(C)C)Oc1ccc(SC)c(C)c1 (stereo not given)	1 (yes)
CCCOc1nn(C(=O)NS(=O)(=O)c2ccccc2C(=O)OC)c(=O)n1C	0 (no)
CCOC(=O)CC(SP(=O)(OC)OC)C(=O)OCC (stereo not given)	0 (no)
CCOP(=S)(OCC)SCCSCC	0 (no)
CN1COCN(Cc2cnc(Cl)s2)C1=N[N+](=O)[O-]	0 (no)
CC1(C(=O)Nc2ccc(O)c(Cl)c2Cl)CCCCC1	0 (no)

* * *

# Read-out: Interleukin-6 (IL6), IL6 (gene 3569)
# procedureDetails: BSK_CASM3C_IL6: BioMAP Diversity Plus: CASM3C Assay for Interleukin-6 (IL6) Biomarker Activity for (AID 2283040)
# assaySetup: primary human coronary artery smooth muscle cells; actives raise or lower the signal
Activity calls are given as the source filed them. The calls were made as follows: active = hit-call score of the fitted dose curve at least 0.9, where 1 is the maximum; inactive = score below 0.9.
Classes used: active, inactive

compound	label
COP(=O)(OC)SCn1c(=O)oc2cc(Cl)cnc21	inactive
CC1(C(=O)Nc2ccc(O)c(Cl)c2Cl)CCCCC1	inactive
CCOC(=O)CC(SP(=O)(OC)OC)C(=O)OCC (configuration not stated)	inactive
COP(=O)(OC)OC(Br)C(Cl)(Cl)Br (configuration not stated)	active
CCCCN(CC)c1c([N+](=O)[O-])cc(C(F)(F)F)cc1[N+](=O)[O-]	inactive
CCCCOC(=O)[C@@H](C)Oc1ccc(Oc2ccc(C#N)cc2F)cc1	inactive
COc1ccc(C(=CC(=O)N2CCOCC2)c2ccc(Cl)cc2)cc1OC	inactive
CON=C(C(=O)OC)c1ccccc1CON=C(C)c1cccc(C(F)(F)F)c1	active
CSc1nc(NC(C)C)nc(NC(C)C)n1	inactive
CCOP(=S)(OCC)SCCSCC	inactive
CCCCSP(=O)(SCCCC)SCCCC	inactive
O=C(O)c1cc(Oc2ccc(C(F)(F)F)cc2Cl)ccc1[N+](=O)[O-]	inactive

* * *

# assayedSystem: Paired box protein Pax-6 (Homo sapiens)
# procedureDetails: ATG_Pax6_CIS: Attagene CIS-FACTORIAL HepG2 Assay for human Paired Box 6 (PAX6) (AID 2282956)
# assaySetup: HepG2 CIS-FACTORIAL PAX6 reporter transcription, RNA readout; actives raise or lower the signal
Active and inactive are the calls of the source. The calls were made as follows: active = hit-call score of the fitted dose curve at least 0.9, where 1 is the maximum; inactive = score below 0.9.

compound	AC50
Cc1cc(C2CC2)nc(Nc2ccccc2)n1	50 µM (active)
CCOP(=S)(OCC)Oc1cc(C)nc(C(C)C)n1	inactive
CSc1nc(NC(C)C)nc(NC(C)C)n1	inactive
CNC(=O)ON=C(SC)C(=O)N(C)C	inactive
COP(=O)(OC)OC(Br)C(Cl)(Cl)Br (stereo not given)	inactive

* * *

# Read-out: Interleukin-8 (IL8), CXCL8 (gene 3576)
# procedureDetails: BSK_3C_IL8: BioMAP Diversity Plus: 3C Assay for Interleukin-8 (IL8) Biomarker Activity (AID 2283020)
# assaySetup: primary human endothelial cells (HUVEC); actives raise or lower the signal
Calls of active or inactive are those of the source. How the source made its calls: active means hit-call score of the fitted dose curve at least 0.9, where 1 is the maximum; inactive means score below 0.9.
assayReadout: AC50

compound	assayResult
COP(=O)(NC(C)=O)SC (stereo not given)	inactive
CCCSP(=O)(OCC)Oc1ccc(Br)cc1Cl (stereo not given)	inactive
CCOC(=O)CC(SP(=O)(OC)OC)C(=O)OCC (stereo not given)	inactive
CN(C)[C@@H]1C(=O)C(C(N)=O)=C(O)[C@@]2(O)C(=O)C3=C(O)c4c(O)cccc4[C@@](C)(O)[C@H]3[C@H](O)[C@@H]12	inactive
CCC(CC)Nc1c([N+](=O)[O-])cc(C)c(C)c1[N+](=O)[O-]	23.8 µM (active)
CCOP(=S)(OCC)SCCSCC	inactive
O=c1ccc(=O)[nH][nH]1	inactive
COc1ccc(C(=CC(=O)N2CCOCC2)c2ccc(Cl)cc2)cc1OC	inactive
CN1COCN(Cc2cnc(Cl)s2)C1=N[N+](=O)[O-]	inactive
Nc1c(Cl)cc([N+](=O)[O-])cc1Cl	inactive
CC(C)N(C(=O)SCC(Cl)=C(Cl)Cl)C(C)C	30.2 µM (active)
CCOC(=O)COc1cc(-c2nn(C)c(OC(F)F)c2Cl)c(F)cc1Cl	inactive
CC[C@H](C)[C@H]1O[C@]2(C=C[C@@H]1C)C[C@@H]1C[C@@H](C/C=C(\C)[C@@H](O[C@H]3C[C@H](OC)[C@@H](O[C@H]4C[C@H](OC)[C@@H](NC)[C@H](C)O4)[C@H](C)O3)[C@@H](C)/C=C/C=C3\CO[C@@H]4[C@H](O)C(C)=C[C@@H](C(=O)O1)[C@]34O)O2	6.22 µM (active)
COP(=O)(OC)SCn1c(=O)oc2cc(Cl)cnc21	11.3 µM (active)
CCc1cccc(C)c1N(C(=O)CCl)C(C)COC (stereo not given)	inactive
CC(C)[C@H](C(=O)O[C@H](C#N)c1cccc(Oc2ccccc2)c1)c1ccc(Cl)cc1	inactive
CCOP(=S)(Oc1cnc(C(C)(C)C)nc1)OC(C)C (stereo not given)	30.2 µM (active)
CC1(C(=O)Nc2ccc(O)c(Cl)c2Cl)CCCCC1	inactive
COc1cc(OC)nc(Sc2cccc(Cl)c2C(=O)O)n1	inactive
CCCCOC(=O)c1ccccc1C(=O)O	inactive
CNC(=O)Oc1cccc2c1OC(C)(C)O2	inactive
Nc1nc(N)nc(NC2CC2)n1	inactive
Cc1ccn2nc(S(=O)(=O)Nc3c(F)cccc3F)nc2n1	inactive
CCOP(=S)(OCC)Oc1ccc([N+](=O)[O-])cc1	inactive
CN(C)C(=O)Nc1cccc(C(F)(F)F)c1	inactive
CCNc1nc(Cl)nc(NC(C)(C)C#N)n1	inactive
CCCCN(CC)c1c([N+](=O)[O-])cc(C(F)(F)F)cc1[N+](=O)[O-]	inactive
COc1cccc(C(=O)NN(C(=O)c2cc(C)cc(C)c2)C(C)(C)C)c1C	inactive
CNC(=O)ON=C(C)SC	inactive
CCC(=NOC/C=C/Cl)C1=C(O)CC(C2CCOCC2)CC1=O (stereo not given)	inactive
CCOP(=S)(OCC)Oc1cc(C)nc(C(C)C)n1	inactive
C=C(C)[C@H]1Cc2c(ccc3c2O[C@@H]2COc4cc(OC)c(OC)cc4[C@@H]2C3=O)O1	20 µM (active)
Cc1nn(-c2cc(NS(C)(=O)=O)c(Cl)cc2Cl)c(=O)n1C(F)F	inactive
C[N+]1(C)CCCCC1	inactive
CCOP(=O)(SC(C)CC)N1CCSC1=O (stereo not given)	inactive
CC(COc1ccc(Oc2ccccc2)cc1)Oc1ccccn1 (stereo not given)	inactive
CSC1=N[C@@](C)(c2ccccc2)C(=O)N1Nc1ccccc1	8.64 µM (active)
CON=C(C(=O)OC)c1ccccc1CON=C(C)c1cccc(C(F)(F)F)c1	1.76 µM (active)
CCOP(=S)(OCC)Oc1ccc2c(C)c(Cl)c(=O)oc2c1	inactive
CCCOCC(=Nc1ccc(Cl)cc1C(F)(F)F)n1ccnc1	33.7 µM (active)

* * *

# Read-out: Potassium channel subfamily K member 1 (KCNK1), KCNK1 (gene 3775)
# procedureDetails: LTEA_HepaRG_KCNK1: Life Technologies and Expression Analysis (LTEA) Assay for Potassium channel subfamily K member 1 (KCNK1) using HepaRG (AID 2283511)
# assaySetup: mRNA level, 48 h; actives raise or lower the signal
# Description: LTEA_HepaRG is a cell based, multiplexed-readout assay that uses HepaRG, a human liver cell line, with measurements taken at 48 hours after chemical dosing on a 96-well plate.LTEA_HepaRG_KCNK1 is one of 102 assay component(s) measured in the LTEA HepaRG cell culture assay. It is a marker of Hyperplasia.Data from the assay component LTEA_HepaRG_KCNK1 was analyzed into 1 endpoint. […]
The source made the active and inactive calls. The calls were made as follows: active = hit-call score of the fitted dose curve at least 0.9, where 1 is the maximum; inactive = score below 0.9.
Classes used: YES = active, NO = inactive

compound	label
CCOC(=O)COc1cc(-c2nn(C)c(OC(F)F)c2Cl)c(F)cc1Cl	NO
S=C1NCCN1	NO
CCCCOC(=O)c1ccccc1C(=O)O	NO
CCc1cccc(C)c1N(C(=O)CCl)C(C)COC (configuration not stated)	NO
C=C(C)[C@H]1Cc2c(ccc3c2O[C@@H]2COc4cc(OC)c(OC)cc4[C@@H]2C3=O)O1	YES
CC(=NC#N)N(C)Cc1ccc(Cl)nc1	NO
CCOP(=S)(OCC)Oc1cc(C)nc(C(C)C)n1	NO
Cc1ccn2nc(S(=O)(=O)Nc3c(F)cccc3F)nc2n1	NO
CCC(=NOC/C=C/Cl)C1=C(O)CC(C2CCOCC2)CC1=O (configuration not stated)	NO
COc1cc(OC)nc(Sc2cccc(Cl)c2C(=O)O)n1	NO
CSC1=N[C@@](C)(c2ccccc2)C(=O)N1Nc1ccccc1	NO
CCOC(=O)CC(SP(=O)(OC)OC)C(=O)OCC (configuration not stated)	NO

These measurements were taken from PubChem BioAssay (EPA / NIEHS).
